ASSAY_TEXT: Antiproliferative activity against human KB/VCR cells after 72 hrs by sulforhodamine B assay
Assay type: functional, cell-based
MEASUREMENT_KIND: pIC50
// returns pIC50 (minus log10 of molar concentration), number only

Completed entries (count: 3):
Cc1cc2c(o1)-c1c(c3ccccc3c(=O)n1CCCN1CCCCC1)C(=O)C2=O    5.82
Cc1cc2c(o1)-c1c(c3ccccc3c(=O)n1CCCCCN(C)C)C(=O)C2=O    5.29
Cc1cccc2c3c(ccc12)-c1occ(CN(CCO)CCO)c1C(=O)C3=O    5.84

Looking for the measured pIC50 of Cc1cccc2c3c(ccc12)C1=C(CC(C)(C)O1)C(=O)C3=O , can you help?
5.63

Looking for the measured pIC50 of Cc1cccc2c3c(ccc12)-c1occ(CN2CCN(CCO)CC2)c1C(=O)C3=O , can you help?
5.36
